Molecular target: Tyrosinase (Homo sapiens)
Sequence (P14679 19-529, species assumed): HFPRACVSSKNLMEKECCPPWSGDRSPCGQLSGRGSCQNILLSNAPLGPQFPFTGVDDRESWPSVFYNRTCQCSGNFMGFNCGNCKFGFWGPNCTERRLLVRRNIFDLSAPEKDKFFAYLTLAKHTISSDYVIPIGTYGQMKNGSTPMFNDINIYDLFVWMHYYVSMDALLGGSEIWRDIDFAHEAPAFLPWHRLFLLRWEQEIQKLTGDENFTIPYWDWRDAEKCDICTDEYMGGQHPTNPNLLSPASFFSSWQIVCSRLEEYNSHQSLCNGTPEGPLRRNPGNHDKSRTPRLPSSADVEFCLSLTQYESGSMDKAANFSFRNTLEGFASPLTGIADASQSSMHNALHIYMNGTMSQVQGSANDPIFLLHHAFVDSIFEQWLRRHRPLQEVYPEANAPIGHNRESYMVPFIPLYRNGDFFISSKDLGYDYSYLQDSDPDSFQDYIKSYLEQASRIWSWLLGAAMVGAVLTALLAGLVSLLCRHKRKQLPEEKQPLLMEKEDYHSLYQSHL
Experiment: Tyrosinase assay
Type: biochemical
Settings: 0.25 μM
Peptide text beside a SMILES is read from it.
QUANTITY MEASURED: % increase in Tyrosinase activity (%)

{"columns": ["COMPOUND", "RESULT NUMBER"],
 "data": [
  ["CC(C)[C@H](NC(=O)OCc1ccccc1)C(=O)N[C@@H](Cc1ccc(O)cc1)C(N)=O [Compound 2] (HELM PEPTIDE1{[O=C(OCc1ccccc1)[*:2]].V.Y.[am]}$$$$V2.0)", 2.0],
  ["C[C@@H](O)[C@H](NC(=O)OCc1ccccc1)C(=O)N[C@@H](Cc1ccc(O)cc1)C(N)=O [Compound 4] (HELM PEPTIDE1{[O=C(OCc1ccccc1)[*:2]].T.Y.[am]}$$$$V2.0)", 0.8],
  ["CSCC[C@H](NC(=O)OCc1ccccc1)C(=O)N[C@@H](Cc1c[nH]c2ccccc12)C(=O)O [Compound 3] (HELM PEPTIDE1{[O=C(OCc1ccccc1)[*:2]].M.W}$$$$V2.0)", 1.8],
  ["O=C(N[C@@H](CO)C(=O)N[C@@H](Cc1ccc(O)cc1)C(=O)OCc1ccccc1)OCc1ccccc1 [Compound 1] (HELM PEPTIDE1{[O=C(OCc1ccccc1)[*:2]].S.Y.[c1ccc(CO[*:1])cc1]}$$$$V2.0)", 3.5]
]}

* * *

Tested on: Neonatal foreskin primary human epidermal melanocytes
Experiment: Cell viability by the calcein method
Type: cell-based
Settings: human, 72 h, 0.25 μM
Peptide text beside a SMILES is read from it.
Measured % Viability values are reported for all entries that follow.

{"columns": ["COMPOUND", "TESTED TARGET", "% Viability"],
 "data": [
  ["CC(C)[C@H](NC(=O)OCc1ccccc1)C(=O)N[C@@H](Cc1ccc(O)cc1)C(N)=O [Compound 2] (HELM PEPTIDE1{[O=C(OCc1ccccc1)[*:2]].V.Y.[am]}$$$$V2.0)", "Neonatal foreskin primary human epidermal melanocytes", "81%"],
  ["C[C@@H](O)[C@H](NC(=O)OCc1ccccc1)C(=O)N[C@@H](Cc1ccc(O)cc1)C(N)=O [Compound 4] (HELM PEPTIDE1{[O=C(OCc1ccccc1)[*:2]].T.Y.[am]}$$$$V2.0)", "Neonatal foreskin primary human epidermal melanocytes", "110%"],
  ["CSCC[C@H](NC(=O)OCc1ccccc1)C(=O)N[C@@H](Cc1c[nH]c2ccccc12)C(=O)O [Compound 3] (HELM PEPTIDE1{[O=C(OCc1ccccc1)[*:2]].M.W}$$$$V2.0)", "Neonatal foreskin primary human epidermal melanocytes", "99%"],
  ["O=C(N[C@@H](CO)C(=O)N[C@@H](Cc1ccc(O)cc1)C(=O)OCc1ccccc1)OCc1ccccc1 [Compound 1] (HELM PEPTIDE1{[O=C(OCc1ccccc1)[*:2]].S.Y.[c1ccc(CO[*:1])cc1]}$$$$V2.0)", "Neonatal foreskin primary human epidermal melanocytes", "107%"]
]}

Numbers sourced from patent US11433012B2.
